molecular target: human α4β2-nAChR (Homo sapiens, UniProt P17787+P43681); construct: expressed in transfected cells; host or cells: human SH-EP1 cell line; assay: 86Rb+ efflux assay, carbachol-induced response, heterologously expressed α4β2-nAChR; type: cell-based
Sequence (P43681 29-627 limits assumed): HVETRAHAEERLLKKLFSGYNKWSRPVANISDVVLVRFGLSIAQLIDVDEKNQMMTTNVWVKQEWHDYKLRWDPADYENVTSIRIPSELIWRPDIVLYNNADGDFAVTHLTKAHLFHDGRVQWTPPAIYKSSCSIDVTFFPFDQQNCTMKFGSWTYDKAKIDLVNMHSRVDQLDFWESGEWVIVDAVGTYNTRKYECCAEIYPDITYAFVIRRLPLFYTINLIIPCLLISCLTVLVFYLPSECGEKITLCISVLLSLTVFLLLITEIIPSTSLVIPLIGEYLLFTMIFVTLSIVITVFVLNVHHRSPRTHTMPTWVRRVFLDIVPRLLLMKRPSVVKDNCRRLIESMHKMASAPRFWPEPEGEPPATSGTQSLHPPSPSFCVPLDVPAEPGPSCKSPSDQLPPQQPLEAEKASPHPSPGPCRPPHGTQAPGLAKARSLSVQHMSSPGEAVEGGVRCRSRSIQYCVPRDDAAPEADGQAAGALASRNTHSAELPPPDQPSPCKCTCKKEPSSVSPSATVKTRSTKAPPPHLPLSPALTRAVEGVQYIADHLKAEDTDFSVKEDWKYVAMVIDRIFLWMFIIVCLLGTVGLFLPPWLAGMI
Sequence (P17787 26-502): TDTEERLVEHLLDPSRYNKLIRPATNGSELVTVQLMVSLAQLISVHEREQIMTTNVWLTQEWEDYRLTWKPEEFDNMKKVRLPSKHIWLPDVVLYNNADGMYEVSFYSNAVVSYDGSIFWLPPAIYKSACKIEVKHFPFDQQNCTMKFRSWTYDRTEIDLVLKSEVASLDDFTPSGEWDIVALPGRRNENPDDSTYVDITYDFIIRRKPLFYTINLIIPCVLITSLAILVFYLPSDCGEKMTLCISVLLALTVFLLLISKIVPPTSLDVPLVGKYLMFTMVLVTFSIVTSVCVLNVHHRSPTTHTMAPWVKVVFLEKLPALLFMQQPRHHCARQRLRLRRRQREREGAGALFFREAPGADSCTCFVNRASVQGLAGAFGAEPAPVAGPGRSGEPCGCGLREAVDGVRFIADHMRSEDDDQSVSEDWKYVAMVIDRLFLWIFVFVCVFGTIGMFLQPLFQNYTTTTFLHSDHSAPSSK
valueType: pIC50
Remember the convention: pIC50 equals -log10 of concentration in molar.

Query: Which pIC50 value belongs to COc1ccc2c(c1OC)CN1CCc3cc4c(cc3C1C2)OCO4 (stereo not shown) [THB, tetrahydroberberine] ?
Result: 5.15

----------
molecular target: human α4β2-nAChR (Homo sapiens, UniProt P17787+P43681); construct: expressed in transfected cells; host or cells: human SH-EP1 cell line; assay: Whole-cell patch-clamp of human α4β2-nAChR-mediated currents in transfected SH-EP1 cells; assay type: cell-based; details: IC50 value of Is (steady-state current), 1 mM ACh-induced whole-cell currents, SH-EP1 cells
valueType: IC50 (µM)
Give just the numeric value; µM need not be written.

Query: Which IC50 value belongs to COc1ccc2c(c1OC)CN1CCc3cc4c(cc3C1C2)OCO4 (stereo not shown) [THB, tetrahydroberberine] ?
Result: 37
